# Tested on: PfHDP1 homeodomain (GST-tagged)
# TEST: gcPBM binding intensity (ln(normalized median fluorescence intensity)); higher = stronger DNA binding
In all, about 25,000 sequences were measured (“ln(normalized median fluorescence intensity)”: median about 6.7, highest 2% from about 10 on). This excerpt belongs to a sample that is enriched for the highest values.
Each item that follows carries a reported gcPBM binding intensity (ln).

- SEQUENCE RECORD: "TTTTTAAAAATATACACACACAGATATTATATATAT [CACACA_site786]"
  gcPBM binding intensity (ln): 6.94
- SEQUENCE RECORD: "AATATTTATGGGTGCACACAAACATACATATATATA [CACACA_site3395]"
  gcPBM binding intensity (ln): 10
- SEQUENCE RECORD: "TTAATTATATTATGCACACACAATTGGAAAAAAAAT [CACACA_site1958]"
  gcPBM binding intensity (ln): 10.2
- SEQUENCE RECORD: "TATATTTTATATATGGTGCAACTTTTATTTAAATAA"
  gcPBM binding intensity (ln): 10.7
- SEQUENCE RECORD: "TATATATAAATATATGTGCACTTTTTATATTTATAT"
  gcPBM binding intensity (ln): 9.06
- SEQUENCE RECORD: "TTTATATATATTTATACACACAAACATAATACTACT [CACACA_site5161]"
  gcPBM binding intensity (ln): 6.86
- SEQUENCE RECORD: "TCGTCTCAATAATTATAATAAAAAAATTCCTAAGTC [CACACA_negctrl_site338]"
  gcPBM binding intensity (ln): 6.28
- SEQUENCE RECORD: "TATATATATATATATGCACACATTTATACAATTTTA [CACACA_site2986]"
  gcPBM binding intensity (ln): 10.2
- SEQUENCE RECORD: "TTTTTAATATATTAGGTGCACAATAATACACTTTAT"
  gcPBM binding intensity (ln): 10.3
- SEQUENCE RECORD: "TTTTTATTACATAATTAAAAAAAATAATAAAATAAA [XGTACX_negctrl_site249]"
  gcPBM binding intensity (ln): 6.03
- SEQUENCE RECORD: "TTATAATCCATAATTGCACACAATATATTCATATTT [CACACA_site3916]"
  gcPBM binding intensity (ln): 10.1
- SEQUENCE RECORD: "TAATTTCCTTAAGAATGTACTTACATTTTATTATTT [XGTACX_site5998]"
  gcPBM binding intensity (ln): 6.02
- SEQUENCE RECORD: "AGGTGCAAAAATAAAACATGCAAAAATAAAAATGAA [TGCATGCA_site502]"
  gcPBM binding intensity (ln): 10.7
- SEQUENCE RECORD: "TTTATTTATATTTATACACACAAACATAATACTACT [CACACA_site7039]"
  gcPBM binding intensity (ln): 6.82
- SEQUENCE RECORD: "TATGAATATTGCATGTGTACCTATTATCCTTTTAAA [XGTACX_site4311]"
  gcPBM binding intensity (ln): 6.95

----------
# Test system: PfHDP1 homeodomain (GST-tagged)
# TEST: gcPBM binding intensity (ln(normalized median fluorescence intensity)); higher = stronger DNA binding
The full ranking holds about 25,000 sequences; the median of “ln(normalized median fluorescence intensity)” is about 6.7, and the highest 2% start at about 10. The entries come from a sample that favours the highest values as a whole.
MEASURED PARAMETER: gcPBM binding intensity (ln)

- SEQUENCE RECORD: "TTTGTCTGCATACGCACACACGTGTACCATCTTATG [CACACA_site4784]"
  MEASURED PARAMETER: "gcPBM binding intensity (ln)"
  NUMBER: 7.89
- SEQUENCE RECORD: "TAATATAATCTGAGTGCACACAAATAAATAAACATA [CACACA_site8032]"
  MEASURED PARAMETER: "gcPBM binding intensity (ln)"
  NUMBER: 11.2
- SEQUENCE RECORD: "CTGTACACTTAAACGGTGCAAAAAGAAAAAAAAGAA"
  MEASURED PARAMETER: "gcPBM binding intensity (ln)"
  NUMBER: 10.6
- SEQUENCE RECORD: "TTAACAAATAAATGCACACATATATATAAATAATAT [CACACA_site28]"
  MEASURED PARAMETER: "gcPBM binding intensity (ln)"
  NUMBER: 9.43
- SEQUENCE RECORD: "CGTAATAAAAACAAATGTACATGACCTGGACAGGTT [XGTACX_site6560]"
  MEASURED PARAMETER: "gcPBM binding intensity (ln)"
  NUMBER: 6.4
- SEQUENCE RECORD: "ATATATTAAAAACGATGTACCCTGAACTAAAAAAAA [XGTACX_site4986]"
  MEASURED PARAMETER: "gcPBM binding intensity (ln)"
  NUMBER: 6.52
- SEQUENCE RECORD: "ATGCAAATAATATAAAGTACACAACATCGCCCAAAG [XGTACX_site1825]"
  MEASURED PARAMETER: "gcPBM binding intensity (ln)"
  NUMBER: 7
- SEQUENCE RECORD: "CCTAGAAAAAAGAACTGTACATATATATATAAATAT [XGTACX_site1680]"
  MEASURED PARAMETER: "gcPBM binding intensity (ln)"
  NUMBER: 6.65
- SEQUENCE RECORD: "TAGTATGATAACTTGGGTACATAAATATGGAGTATC [XGTACX_site1296]"
  MEASURED PARAMETER: "gcPBM binding intensity (ln)"
  NUMBER: 6.81
- SEQUENCE RECORD: "ATAATATTTTCTTCTTATTGAATGCTTTAAATTTAC [CACACA_negctrl_site1273]"
  MEASURED PARAMETER: "gcPBM binding intensity (ln)"
  NUMBER: 6.46
- SEQUENCE RECORD: "TTGCAAATATATGGTTGTACTCAAAAAAAAAAAAAA [XGTACX_site6975]"
  MEASURED PARAMETER: "gcPBM binding intensity (ln)"
  NUMBER: 6.47
- SEQUENCE RECORD: "TTCCAAAAAATTATTACACACATATGGGCACATATA [CACACA_site679]"
  MEASURED PARAMETER: "gcPBM binding intensity (ln)"
  NUMBER: 6.54
- SEQUENCE RECORD: "TTATATGTATATATAGTGCAGAACAAAAGATTATAT [GTGCAC_site9599]"
  MEASURED PARAMETER: "gcPBM binding intensity (ln)"
  NUMBER: 7.69
- SEQUENCE RECORD: "CCTCTTAATATGTGCACACTAAATTATAACATAATT [CACACA_site3259]"
  MEASURED PARAMETER: "gcPBM binding intensity (ln)"
  NUMBER: 11.3
- SEQUENCE RECORD: "AATTTATTTTTAAAAAGTACATACTTAAGAAAACGA [XGTACX_site3660]"
  MEASURED PARAMETER: "gcPBM binding intensity (ln)"
  NUMBER: 6.85
- SEQUENCE RECORD: "GTTTATGTTAAACCATGTACTTAATATTTTATTCTT [XGTACX_site3761]"
  MEASURED PARAMETER: "gcPBM binding intensity (ln)"
  NUMBER: 6.29
- SEQUENCE RECORD: "ATAATATTTTAATGCACACACACAAAAAAAAAAAAA [CACACA_site2891]"
  MEASURED PARAMETER: "gcPBM binding intensity (ln)"
  NUMBER: 9.96
- SEQUENCE RECORD: "TTTGAATACTGAATGGTGCAAATTGTTCTCCCCATG"
  MEASURED PARAMETER: "gcPBM binding intensity (ln)"
  NUMBER: 10.5
- SEQUENCE RECORD: "ATATCAACTGAATTGTATAGGCGATAAAAGAAAAAA [CACACA_negctrl_site1334]"
  MEASURED PARAMETER: "gcPBM binding intensity (ln)"
  NUMBER: 6.58
- SEQUENCE RECORD: "GTATCAATAAAAAACAGTACATATATAATATATTTA [XGTACX_site1083]"
  MEASURED PARAMETER: "gcPBM binding intensity (ln)"
  NUMBER: 6.24
- SEQUENCE RECORD: "TAAATATAAACACAAACACACACATATATATATATA [CACACA_site7978]"
  MEASURED PARAMETER: "gcPBM binding intensity (ln)"
  NUMBER: 9.27
- SEQUENCE RECORD: "ATATATTATATTATATGTACTTAAAAAAGTGCAAAG [XGTACX_site318]"
  MEASURED PARAMETER: "gcPBM binding intensity (ln)"
  NUMBER: 9.16
- SEQUENCE RECORD: "AATATAATATAATGCACACATAAAACAAAAAAAAAA [CACACA_site3012]"
  MEASURED PARAMETER: "gcPBM binding intensity (ln)"
  NUMBER: 10.2
